- Tested on: CD2F1 mice, L1210 leukemia ip, survival T/C
- protocol_notes: NCI In Vivo Anticancer Drug Screen. Data for tumor model L1210 Leukemia (intraperitoneal) in CD2F1 (CDF1) mice
- applied_conditions: endpoint: mean survival time; dose: 200.0 mg/kg/injection; schedule: Q01DX001 (ip); vehicle: saline; higher = longer survival
Toxic doses and inconclusive results are not listed.
compounds and their reported T/C

# compound, T/C
records = [
    ("NC(=S)N/N=C/C(=O)c1ccc(Br)cc1", "100 % of control"),
    ("CCCCC/C(C)=N\\O", "95 % of control"),
    ("CC(=O)NCC(C)C", "97 % of control"),
    ("Cc1cc(-c2ccccc2)c2c(C#N)cn(-c3ccccc3)c2n1", "92 % of control"),
    ("C[N+](C)(C)C(Cc1c[nH]c2ccccc12)C(=O)O (stereo not given)", "101 % of control"),
    ("Nc1nc2c(c(=O)[nH]1)N(C(=S)Nc1ccccc1)C(CNc1ccc(C(=O)NC(CCC(=O)O)C(=O)O)cc1)CN2 (stereo not given)", "101 % of control"),
    ("CC1CCC(C(C)C)/C(=N/NC(=O)CC#N)C1 (stereo not given)", "95 % of control"),
    ("O=C(O)C(O)Cn1ccccc1=O (stereo not given)", "101 % of control"),
    ("NC(=O)CCC(=O)NCCN1CC1", "98 % of control"),
    ("N#CCC(=O)NN=C1CCCCC1", "123 % of control"),
    ("COc1ccc(-n2cc(C#N)c3c(C)cc(C)nc32)cc1", "96 % of control"),
    ("O=S(=O)(O)Cc1ccccc1O", "100 % of control"),
    ("O=C1C2C3C=CC(O3)C2C(=O)N1Cc1ccncc1 (stereo not given)", "100 % of control"),
    ("Nc1ncnc2c1ncn2C1OCC(O)C(O)C1O (stereo not given)", "101 % of control"),
    ("O=C(O)C1(O)C[C@@H](O)C(O)[C@H](O)C1 (stereo not given in full)", "96 % of control"),
]

----------
compounds and their reported T/C
- System: CD2F1 mice, L1210 leukemia ip, survival T/C
- protocol_notes: NCI In Vivo Anticancer Drug Screen. Data for tumor model L1210 Leukemia (intraperitoneal) in CD2F1 (CDF1) mice
- applied_conditions: endpoint: mean survival time; dose: 100.0 mg/kg/injection; schedule: Q04DX003 (ip); vehicle: saline; higher = longer survival
Toxic doses and inconclusive results are not listed.

# compound, T/C
records = [
    ("c1cncc(CCc2cccnc2)c1", "100 % of control"),
    ("N=C(N)SCCSC(=N)N", "100 % of control"),
    ("CCOC(=O)c1cnc2c(cnn2CC)c1NN=C(C)C", "105 % of control"),
    ("NC(N)=NC(N)=Nc1cnccn1", "104 % of control"),
    ("CC(C)=CC(C)=Nc1ccccc1", "102 % of control"),
    ("Cc1ccc(S(=O)(=O)OCC2CC=CCC2COS(=O)(=O)c2ccc(C)cc2)cc1 (stereo not given)", "96 % of control"),
    ("NC(N)=NC1CCCC1", "100 % of control"),
    ("CCCCn1c(Cc2ccccc2)nc2c1C(=O)c1ccccc1C2=O", "103 % of control"),
    ("CC(C)(O)C#CC(C)(C)O", "101 % of control"),
    ("CCCCCCCCCCP(=O)(OCCCC)OCCCC", "100 % of control"),
    ("Cc1c(N)cccc1F", "95 % of control"),
    ("CCN(CC)C(=O)N1CC2CCC(C1)N2C", "100 % of control"),
    ("COCCC1(CN2c3ccccc3Sc3ccc(Cl)cc32)CCN(C)C1 (stereo not given)", "102 % of control"),
    ("CCCCCC(O)CCC(=O)NN (stereo not given)", "100 % of control"),
    ("CC(=O)OC1CCC(C(C)(C)C)CC1 (stereo not given)", "102 % of control"),
]

----------
- System: CD2F1 mice, L1210 leukemia ip, survival T/C
- protocol_notes: NCI In Vivo Anticancer Drug Screen. Data for tumor model L1210 Leukemia (intraperitoneal) in CD2F1 (CDF1) mice
- applied_conditions: endpoint: mean survival time; dose: 400.0 mg/kg/injection; schedule: Q04DX003 (ip); vehicle: saline with Tween-80; higher = longer survival
- Protocol: The antitumor activity of compounds was measured in mice bearing transplantable tumors. Survival or tumor size were measured and the results are expressed as the measurement made in the treated group (T) divided by the measurement made in the vehicle treated control group (C). The tumor model used in this assay is L1210 Leukemia (intraperitoneal) in CD2F1 (CDF1) mice
Toxic doses and inconclusive results are not listed.
molecules and their reported T/C

# molecule, tested_target, T/C
data = [
    ("Nc1cc(C(F)(F)F)ccc1[N+](=O)[O-]", "CD2F1 mice, L1210 leukemia ip, survival T/C", "104 % of control"),
    ("Cc1cc(C)c(C(=O)CC(C#N)c2ccccc2)c(C)c1 (centres undefined)", "CD2F1 mice, L1210 leukemia ip, survival T/C", "91 % of control"),
    ("O=C1NC(=O)c2cccc3cccc1c23", "CD2F1 mice, L1210 leukemia ip, survival T/C", "100 % of control"),
    ("NC(=O)c1c(F)cccc1Cl", "CD2F1 mice, L1210 leukemia ip, survival T/C", "106 % of control"),
]

----------
compounds and their reported T/C
- Tested on: CD2F1 mice, L1210 leukemia ip, survival T/C
- protocol_notes: NCI In Vivo Anticancer Drug Screen. Data for tumor model L1210 Leukemia (intraperitoneal) in CD2F1 (CDF1) mice
- applied_conditions: endpoint: mean survival time; dose: 200.0 mg/kg/injection; schedule: Q01DX009 (ip); vehicle: saline with Tween-80; higher = longer survival
Toxic doses and inconclusive results are not listed.

# query_smiles, T/C
records = [
    ("CCOc1ccc(N=[N+]([O-])c2ccc(OCC)cc2)cc1", "97 % of control"),
    ("Cc1ccc2[nH]c3c(c2c1)CSCC3", "102 % of control"),
    ("COc1cc(OC)c(NC(=O)OCCON2CCNC2=O)cc1Cl", "97 % of control"),
    ("CCOC/C=C/C(C)(C)C", "97 % of control"),
    ("c1ccc2c(c1)Cc1c-2nc2ccccc2c1N1CCOCC1", "106 % of control"),
]
